MEASURE_NAME: melting point

Example results:
[
  {
    "SMILES_STR": "Cc1nc2ccc(C(=O)NS(=O)(=O)c3ccccc3Cl)cc2n1Cc1ccccc1Cl.N",
    "melting point": "264 to 267 °C"
  },
  {
    "SMILES_STR": "CCCCc1nc2ccc(C(=O)N(C)Cc3ccccn3)cc2n1Cc1ccccc1F",
    "melting point": "97 to 100 °C"
  },
  {
    "SMILES_STR": "Cc1ccc(C)c(S(=O)(=O)NC(=O)c2ccc3nc(C)n(Cc4ccccc4Cl)c3c2)c1",
    "melting point": "266.5 to 267.5 °C"
  },
  {
    "SMILES_STR": "CCCc1nc2ccc(C(=O)N(C)c3ccccn3)cc2n1Cc1ccccc1Cl",
    "melting point": "143 to 146 °C"
  },
  {
    "SMILES_STR": "COc1ccc(S(=O)(=O)NC(=O)c2ccc3nc(C)n(Cc4ccccc4Cl)c3c2)cc1",
    "melting point": "271 to 274 °C"
  }
]

Request: Sample Cc1nc2ccc(C(=O)NS(=O)(=O)C(F)(F)F)cc2n1Cc1ccccc1Cl.Cl — what was its melting point?
Result: 332 to 335 °C (dec.)

Request: Cc1nc2ccc(C(=O)NS(=O)(=O)c3ccc([N+](=O)[O-])cc3)cc2n1Cc1ccccc1Cl ?
Result: 330 to 332 °C

Request: Cc1nc2ccc(C(=O)NS(=O)(=O)c3cccc(Cl)c3)cc2n1Cc1ccccc1Cl ?
Result: 254.5 to 257.5 °C (dec.)

Request: Cc1nc2ccc(C(=O)NS(=O)(=O)Cc3ccccc3)cc2n1Cc1ccccc1Cl ?
Result: 193 to 196 °C

Origin of the recorded values: patent US20020082280A1
